Every entry's value here was drawn from a melting point compilation (Tetko et al.; mined from patent text by program, amines drawn as free bases though some values may be those of a salt).

Reported melting point is given for each of the following compounds.

Cc1sc(C(=O)O)c2c1-c1c(cnn1CC(F)(F)F)CC2
250 to 251 °C
Cc1cc(-n2cnn(Cc3ccc(S(C)(=O)=O)cc3)c2=O)sc1C(=O)NCc1cccnc1
208 to 210 °C

response.value for "CC(C)(C)N(NC(=O)c1ccco1)C(=O)c1ccccc1" (field: melting point) = 160 to 162 °C

response.value for "COc1ccc2c(Cc3c(Cl)cncc3Cl)nnc(N3CCN(C)CC3)c2c1" (field: melting point) = 160 to 162 °C

response.value for "Cc1c(F)c(F)c(F)c2c1c(=O)c(C(=O)O)cn2C1CC1" (field: melting point) = 234 to 235 °C

response.value for CCS(=O)(=O)N(C)[C@@H]1c2cc(C#N)ccc2OCC[C@H]1O (relative stereo) (field: melting point) = 142 to 144 °C

response.value for "Cc1oc(C=Cc2cccc(C(F)(F)F)c2)nc1CC(=O)O" (field: melting point) = 157 to 158 °C

response.value for O=C(O)C1CCCCN1CC=CP(=O)(O)O (configuration not stated) (field: melting point) = 163 to 165 °C

====

outcome-measure: melting point

Answered examples (6):
CNc1ncnc2c1ncn2Cc1c(F)cccc1Cl
188 to 190 °C
CC(C)CC(NC(=O)C(C)CS)C(=O)O (stereo not drawn)
66 to 71 °C
CCC(C)NC(=O)c1ncc(C)cc1C(=O)OC (stereo not drawn)
58 to 60 °C
O=C1CCc2c([nH]c3ccc(Cl)cc23)C1
194 to 196 °C
CN1CCCC1=NC(=O)Nc1c(Br)cc(Br)cc1Br
165 to 168 °C
CC(C)(C)[Si](C)(C)O[C@H]1CC(=O)O[C@H](CO)C1
102 °C

response.value for "COC(=O)c1ccccc1C(=O)NN(C(=S)Nc1ccccc1)C(C)C" (field: melting point) = 145 to 147 °C

response.value for "Clc1cc(CBr)ccc1-c1ccccc1C1=NNN(C(c2ccccc2)(c2ccccc2)c2ccccc2)N1" (field: melting point) = 15 to 60 °C

response.value for "Nc1ccc(-c2ncc(Br)cn2)c([N+](=O)[O-])c1" (field: melting point) = 165 to 167 °C

response.value for "NS(=O)(=O)c1ccc(-n2nc(CO)cc2-c2ccc(Cl)cc2)cc1" (field: melting point) = 192 to 194 °C

====

Reported melting point is given for each of the following compounds.

Answered examples (7):
COc1ccc(-n2cc(C#N)c(=O)[nH]c2=O)c(C)c1
276 to 278 °C
COc1ccc(CN2C(=O)CC2COS(C)(=O)=O)c(OC)c1 (stereo not drawn)
71 to 72 °C
CC(C)(C)OC(=O)NCCN(O)C(N)=O
144 to 146 °C
COC(=O)c1sc([N+](=O)[O-])cc1N=NN(C)C
128 to 130 °C
COc1ccc(-c2ccc(C(=O)Nc3ccc4nc(CN5C(C)(C)CCCC5(C)C)ccc4c3)cc2)cc1
210 to 211 °C
COc1ccc(NC(=O)CN2CCC(Cc3ccccc3)CC2)cc1
81 to 83 °C
CCN(CC)c1cc2cnnn2c(C)n1
57 to 58 °C

Now turn to the next compound.
response.value for "CCCc1nc2c(N)nc3ccc(N)cc3c2s1" (field: melting point) = 190 to 192 °C

====

outcome-measure: melting point

Answered examples (10):
CC(C#N)c1coc2cc(I)ccc12 (stereo not drawn)
71 to 72 °C
CN(C)c1ccc(Pc2ccc(N(C)C)cc2)cc1
80 to 90 °C
Cc1c[nH]c2c(C=O)cccc12
77 to 79 °C
Cc1nc2ccc(Cl)cc2nc1Cl
194 to 196 °C
O=C1c2ccc([N+](=O)[O-])cc2C2(c3ccccc3)NCCN12 (stereo not drawn)
203 °C
Cc1cc2nc(N3CCC(=S)CC3)nc(N)c2cc1C
187 to 188 °C
CCOC(=O)c1cn2c(nc1=O)CCC2C (stereo not drawn)
130 °C
O=C(CC1CCCC1)Nc1ccc2cccc(O)c2c1
162 to 165 °C
N#Cc1ccc(N2C(=O)N(CCCO)C3(CCOCC3)C2=O)cc1C(F)(F)F
155 to 156 °C
COC(=O)Nc1c(C#N)cnn1-c1ccc(Cl)c(Cl)c1Cl
205 to 207 °C

response.value for "Nc1ccc(Br)c2ccn3c(=O)c(C(=O)O)cnc3c12" (field: melting point) = 283 to 284 °C

response.value for "C=CCOc1noc2ccc(N3C(=O)C4=C(CCCC4)C3=O)cc12" (field: melting point) = 88 to 89 °C

response.value for "Cc1cc(-c2c(-c3ccc(F)cc3)ncn2CCCN2CCOCC2)ccn1" (field: melting point) = 116 to 117 °C

response.value for "COc1ccc(COc2cccc(-c3cnc4[nH]cc(C(=O)C(C)(C)C)c4n3)c2)cc1" (field: melting point) = > 300 °C

response.value for "CCCCc1sc(C(=O)O)c2c1-c1nn(C)cc1CC2" (field: melting point) = 244 to 245 °C

response.value for "COc1cc(OC)nc(Oc2ccc3ccccc3c2C=O)n1" (field: melting point) = 123 to 125 °C

response.value for "Nc1cc(SCc2ccc(F)cc2)nn1-c1c(Cl)cc(C(F)(F)F)cc1Cl" (field: melting point) = 112 to 113 °C

response.value for "CCCCCCc1nc2cc3c(cc2[nH]1)NC(=O)C3(C)C" (field: melting point) = 233 to 234 °C

====

outcome-measure: melting point

response.value for COc1ccc(C(Sc2ccccc2N)C(O)C(=O)O)cc1 (stereo unspecified) (field: melting point) = 167 to 168 °C

response.value for "CCOC(=O)c1c(O)c(Br)c(Br)n1Cc1ccccc1" (field: melting point) = 107 to 108 °C

response.value for CN(C)C1CC=C(c2ccccc2Cc2ccccc2)CC1 (stereo unspecified) (field: melting point) = 44 to 45 °C

response.value for CCCN(CCCCc1coc2c(OC)cccc12)C1COc2c(F)ccc(C(N)=O)c2C1 (stereo unspecified) (field: melting point) = 99 to 110 °C

response.value for "CC(=O)OCCCOc1ccc2nc3c(cc2c1)NCN3" (field: melting point) = 301 to 303 °C

response.value for CC(C)(C)c1ccc(OC(=O)n2c3c(c(=O)n(C4CCCCO4)c2=O)CCC3)cc1 (stereo unspecified) (field: melting point) = 135 °C

response.value for "Cc1ccc(-c2ccc(C(=O)Nc3ccc4nc(CN(C(C)C)C(C)C)ccc4c3)cn2)cc1" (field: melting point) = 211 to 213 °C

response.value for CC(C)C(C)C=CC(C)C1CCC2C1(C)CCC1C23C=CC2(CC(O)CCC12C)OO3 (stereo unspecified) (field: melting point) = 165 to 169 °C

response.value for COc1ccnc2c(S(=O)c3nc4ccccc4[nH]3)cccc12 (stereo unspecified) (field: melting point) = 178 to 179 °C

response.value for "O=[N+]([O-])c1ccccc1Oc1ccc(OCc2ccc(F)c(F)c2)cc1" (field: melting point) = 74 to 75 °C

response.value for CCOC(=O)C(C#N)CCCCCCc1ccc(Cl)cc1 (stereo unspecified) (field: melting point) = 121 to 122 °C

response.value for "Cc1ccc(C(=O)C=CN(C)C)s1" (field: melting point) = 118 to 121 °C

response.value for CCOC(=O)C(C)Oc1ncn(-c2ccc(Br)cc2)n1 (stereo unspecified) (field: melting point) = 64 to 66 °C

response.value for "COc1cc(C(=O)O)ccc1Cc1csc2ccc(NC(=O)OC3CCCC3)cc12" (field: melting point) = 259 to 261 °C

response.value for "CCOC(=O)Cc1ccc(-c2nc(COc3ccc(COc4nn(-c5ccccc5)cc4/C=C\c4cnn(CC)c4)cc3OC)c(C)o2)cc1" (field: melting point) = 140 to 141 °C

response.value for "CC(=O)NCc1cc([N+](=O)[O-])ccc1C" (field: melting point) = 133 to 138 °C

====

outcome-measure: melting point

CCN1CCc2ccc(Nc3ncc(Cl)c(N[C@@H]4CCCC[C@H]4NC(C)=O)n3)cc2CC1
248 to 250 °C
OC1CSC(Oc2cncc(-c3ccc(F)cc3)c2)C(O)C1O (stereo not drawn)
208 to 209 °C

response.value for "O=C(c1cc2c([nH]c3ccccc32)s1)N1CCOCC1" (field: melting point) = 92 to 95 °C

response.value for "CCOc1cc(OCCCc2cn(-c3ccc(C(F)(F)F)cc3)nc2OCC)ccc1CCC(=O)O" (field: melting point) = 131 to 132 °C

response.value for "CC(C)(C)c1cc(CCc2ccccc2NC(=O)N(Cc2ccccc2)C2CCCCCC2)cc(C(C)(C)C)c1O" (field: melting point) = 183 to 184 °C

response.value for "O=C1Cc2cc(NC(=O)C(=O)N3CCC(Cc4ccccc4)CC3)ccc2N1" (field: melting point) = 115 to 118 °C

response.value for "COc1cc(-c2ncnc(C(F)F)c2Cl)c(F)cc1Cl" (field: melting point) = 118 to 119 °C
